Test: Evaluation of coloring compound for lightfastness (sun tester irradiation, color difference ΔE)
Type: physicochemical
Conditions: ΔE after sun tester irradiation, 765 w/m^2, 50° C., 20 hours, on CLC color copy paper
readout type: Lightfastness

Known Lightfastness results, listed for orientation:
compound: CCCCCCN(CCCCCC)C(=O)c1ccccc1N=Nc1c(O)[nH]c(=O)c(C#N)c1C [D3]
Lightfastness: A (ΔE is less than 15)
--
compound: CCCCC(CC)CN(CC(CC)CCCC)C(=O)c1ccc(N=Nc2c(C)c(C#N)c(=O)n(CC)c2O)cc1 (centres unmarked) [E6, reference compound]
Lightfastness: C (ΔE is 30 or more)
--
compound: Cc1c(N=Nc2ccccc2C(=O)N(c2ccccc2)c2ccccc2)c(O)[nH]c(=O)c1C#N [D12]
Lightfastness: A (ΔE is less than 15)
--
compound: CCCCC(CC)CN(CC(CC)CCCC)C(=O)c1ccccc1N=Nc1c(O)[nH]c(=O)c(C#N)c1-c1ccccc1 (centres unmarked) [D2]
Lightfastness: A (ΔE is less than 15)
--
compound: CCCCCCCCc1ccc(OC(=O)c2ccccc2N=Nc2c(O)[nH]c(=O)c(C#N)c2C)cc1 [D8]
Lightfastness: A (ΔE is less than 15)

Given the entry CCCCCCCCCCCCN(CCCCCCCCCCCC)C(=O)c1ccccc1N=Nc1c(O)[nH]c(=O)c(C#N)c1C [D4] , report its measured Lightfastness.
A (ΔE is less than 15)

Given the entry CCCCC(CC)CN(CC(CC)CCCC)C(=O)c1ccccc1N=Nc1c(C)c(C#N)c(=O)n(CC)c1O (centres unmarked) [E11, reference compound] , report its measured Lightfastness.
C (ΔE is 30 or more)
